Catalogue of compounds with associated IC50
targetOrSystem: FRAP1 (mTOR) kinase (Homo sapiens, UniProt P42345)
Sequence (P42345 1360-2549 limits assumed): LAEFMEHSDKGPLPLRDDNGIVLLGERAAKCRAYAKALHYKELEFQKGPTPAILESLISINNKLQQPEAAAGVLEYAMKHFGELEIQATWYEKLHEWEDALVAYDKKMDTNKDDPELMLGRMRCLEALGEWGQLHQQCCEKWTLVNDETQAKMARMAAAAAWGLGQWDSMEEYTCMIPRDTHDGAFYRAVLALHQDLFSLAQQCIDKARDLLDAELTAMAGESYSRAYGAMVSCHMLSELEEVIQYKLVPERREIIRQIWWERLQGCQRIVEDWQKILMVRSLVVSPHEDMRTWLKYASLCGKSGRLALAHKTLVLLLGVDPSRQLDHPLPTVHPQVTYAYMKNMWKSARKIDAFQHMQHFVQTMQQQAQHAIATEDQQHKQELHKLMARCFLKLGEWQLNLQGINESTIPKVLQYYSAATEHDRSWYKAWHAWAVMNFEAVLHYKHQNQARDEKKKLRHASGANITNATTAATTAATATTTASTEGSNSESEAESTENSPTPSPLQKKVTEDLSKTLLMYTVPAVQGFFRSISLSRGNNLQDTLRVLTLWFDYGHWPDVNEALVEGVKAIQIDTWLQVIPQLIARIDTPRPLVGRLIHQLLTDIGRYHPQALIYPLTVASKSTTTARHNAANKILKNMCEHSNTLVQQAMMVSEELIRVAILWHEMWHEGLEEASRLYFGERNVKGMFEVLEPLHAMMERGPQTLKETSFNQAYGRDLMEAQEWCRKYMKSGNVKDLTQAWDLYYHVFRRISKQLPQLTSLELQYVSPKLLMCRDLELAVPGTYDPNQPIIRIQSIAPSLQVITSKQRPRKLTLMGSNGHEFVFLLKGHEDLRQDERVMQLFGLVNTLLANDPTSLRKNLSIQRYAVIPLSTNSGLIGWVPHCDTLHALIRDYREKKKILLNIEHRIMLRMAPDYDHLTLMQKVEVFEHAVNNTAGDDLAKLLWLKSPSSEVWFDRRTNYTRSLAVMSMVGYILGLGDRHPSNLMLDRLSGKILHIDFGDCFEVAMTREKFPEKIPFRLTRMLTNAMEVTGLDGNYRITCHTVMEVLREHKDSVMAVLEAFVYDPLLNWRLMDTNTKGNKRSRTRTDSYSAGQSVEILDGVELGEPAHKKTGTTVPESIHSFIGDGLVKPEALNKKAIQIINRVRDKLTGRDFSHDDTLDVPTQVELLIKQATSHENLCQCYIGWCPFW
assay: Inhibition of mTOR-induced p-4E-BP1 phosphorylation (TR-FRET mTOR Activity Kit; Invitrogen)
assayContext: 400 nM GFP-4E-BP1 substrate, ~150 ng/mL mTOR, one hour at room temperature
Numbers only; they are read as nM.

CC(=O)Nc1nc2c(s1)-c1c(c(-c3ccc(C)nc3)nn1C(C)C)CCC2 [Example B-09] : 266

Return reported IC50; argument: CC(=O)Nc1nc2c(s1)-c1c(c(-c3cncn3C)nn1-c1ccccc1)CCC2 [Example B-94]
8360

Return reported IC50; argument: C=CCn1nc(-c2ccc(NCC)nc2)c2c1-c1sc(NC(C)=O)nc1CCC2 [Example B-129]
93

Return reported IC50; argument: CCNc1ccc(-c2nn(CCOC)c3c2CCCc2nc(NC(C)=O)sc2-3)cn1 [Example B-125]
114

Return reported IC50; argument: CC(=O)Nc1nc2c(s1)-c1c(c(-c3c[nH]cn3)nn1-c1ccc(C(=O)N(C)C)cc1Cl)CCC2 [Example B-114]
4

Return reported IC50; argument: CC(=O)Nc1nc2c(s1)-c1c(c(-c3ccc(C)nc3)nn1-c1cccnc1C)CCC2 [Example B-137]
422

Return reported IC50; argument: CNC(=O)Nc1nc2c(s1)-c1c(c(-c3ccc(NC)nc3)nn1-c1cccnc1C)CCC2 [Example B-143]
71

Return reported IC50; argument: CC(C)n1nc(-c2ccc(N)nc2)c2c1-c1sc(NC(=O)N(C)C)nc1CCC2 [Example B-29]
200

###

Catalogue of compounds with associated pIC50
targetOrSystem: UniProt P42345
assay: Inhibition of mTOR-induced p-4E-BP1 phosphorylation (TR-FRET mTOR Activity Kit; Invitrogen)
assayContext: 400 nM GFP-4E-BP1 substrate, ~150 ng/mL mTOR, one hour at room temperature
pIC50 is a log-scale quantity: -log10 of the concentration expressed in molar.

CN(C)CCCC(=O)Nc1nc2c(s1)-c1c(c(-c3ccc(N)nc3)nn1-c1ccccc1F)CCC2 : 7.89
CC(=O)Nc1nc2c(s1)-c1c(c(-c3ccc(C)nc3)nn1-c1cccnc1)CCC2 : 7.13
CC(=O)Nc1nc2c(s1)-c1c(c(-c3c[nH]c(C)n3)nn1CCN(C)C)CCC2 : 5.73
COCCC(=O)Nc1nc2c(s1)-c1c(c(-c3ccc(N)nc3)nn1-c1ccccc1C)CCC2 : 7.43
Cc1ccccc1-n1nc(-c2ccc(N)nc2)c2c1-c1sc(NC(=O)N(C)C)nc1CCC2 : 6.77
CNc1ccc(-c2nn(-c3cccc(OC)c3)c3c2CCCc2nc(NC(C)=O)sc2-3)cn1 : 7.24
CNc1ccc(-c2nn(CCN3CCOCC3)c3c2CCCc2nc(NC(=O)N(C)C)sc2-3)cn1 : 6.13
CCNc1ccc(-c2nn(-c3ccccc3Cl)c3c2CCCc2nc(NC(C)=O)sc2-3)cn1 : 7.31

Return reported pIC50; argument: "CC(=O)Nc1nc2c(s1)-c1c(c(-c3ccc(N)nc3)nn1-c1ccccc1Cl)CCC2"
8.05

Return reported pIC50; argument: "CCNc1ccc(-c2nn(-c3ccccc3Br)c3c2CCCc2nc(NC(C)=O)sc2-3)cn1"
6.77

Return reported pIC50; argument: "CNc1ccc(-c2nn(-c3ccccc3F)c3c2CCCc2nc(NC(C)=O)sc2-3)cn1"
7.39

Return reported pIC50; argument: "CC(=O)Nc1nc2c(s1)-c1c(c(-c3c[nH]cn3)nn1-c1ccc(C3(N(C)C)CC3)cc1)CCC2"
8.70

Return reported pIC50; argument: "CCNc1ccc(-c2nn(-c3ccccc3C)c3c2CCCc2nc(NC(=O)COC)sc2-3)cn1"
6.54

Return reported pIC50; argument: "CCNc1ccc(-c2nn(-c3ccccc3C)c3c2CCCc2nc(NC(=O)CCOC)sc2-3)cn1"
6.86

Return reported pIC50; argument: "CCc1ccccc1-n1nc(-c2c[nH]cn2)c2c1-c1sc(NC(C)=O)nc1CCC2"
7.77

Return reported pIC50; argument: "CNc1ccc(-c2nn(-c3ccccc3C)c3c2CCCc2nc(NC(=O)N(C)C)sc2-3)cn1"
5.92

###

Catalogue of compounds with associated pIC50
targetOrSystem: FRAP1 (mTOR) kinase (Homo sapiens, UniProt P42345)
assay: Inhibition of mTOR-induced p-4E-BP1 phosphorylation (TR-FRET mTOR Activity Kit; Invitrogen)
assayContext: 400 nM GFP-4E-BP1 substrate, ~150 ng/mL mTOR, one hour at room temperature
pIC50 is a log-scale quantity: -log10 of the concentration expressed in molar.

A selection of reference data follows.
COCCNC(=O)c1nn(C(C)C)c2c1CCCc1nc(NC(C)=O)sc1-2 : 4.94
CNc1ccc(-c2nn(CCOC)c3c2CCCc2nc(NC(C)=O)sc2-3)cn1 : 7.06
COCCn1nc(-c2ccc(N)nc2)c2c1-c1sc(NC(=O)N(C)C)nc1CCC2 : 6.73

Short answer please: pIC50, FRAP1 (mTOR) kinase (Homo sapiens, UniProt P42345), entry "CC(=O)Nc1nc2c(s1)-c1c(c(C(=O)N(C)CCN(C)C)nn1C(C)C)CCC2"
5.31

Short answer please: pIC50, FRAP1 (mTOR) kinase (Homo sapiens, UniProt P42345), entry "CCNc1ccc(-c2nn(-c3ccncc3C)c3c2CCCc2nc(N)sc2-3)cn1"
5.66

###

targetOrSystem: FRAP1 (mTOR) kinase (Homo sapiens, UniProt P42345)
assay: Inhibition of mTOR-induced p-4E-BP1 phosphorylation (TR-FRET mTOR Activity Kit; Invitrogen)
assayContext: 400 nM GFP-4E-BP1 substrate, ~150 ng/mL mTOR, one hour at room temperature
Please assign label 0 whenever IC50 is at or above 50 nM, and label 1 whenever it is below.

Take a look at these entries with their results.
CNc1ccc(-c2nn(C(C)C)c3c2CCCc2nc(NC(=O)N(C)C)sc2-3)cn1 [Example B-27] : label 0
CCc1ccccc1-n1nc(-c2ccc(NC)nc2)c2c1-c1sc(NC(C)=O)nc1CCC2 [Example B-88] : label 0
CC(=O)Nc1nc2c(s1)-c1c(c(C(=O)Nc3ccccc3)nn1C(C)C)CCC2 [Example E-09] : label 0
CCNc1ccc(-c2nn(-c3ccccc3)c3c2CCCc2nc(NC(C)=O)sc2-3)cn1 [Example B-122] : label 1

Confirm or reject: IC50 of CCNc1ccc(-c2nn(-c3ccccc3C)c3c2CCCc2nc(NC(=O)CNC)sc2-3)cn1 [Example B-69] lies strictly below 50 nM
label 0

Confirm or reject: IC50 of NCC(=O)Nc1nc2c(s1)-c1c(c(-c3ccc(N)nc3)nn1-c1ccccc1F)CCC2 [Example B-101] lies strictly below 50 nM
label 1

Confirm or reject: IC50 of CCOC(=O)CCCNC(=O)c1nn(C(C)C)c2c1CCCc1nc(NC(C)=O)sc1-2 [Example E-12] lies strictly below 50 nM
label 0

Confirm or reject: IC50 of CCNc1ccc(-c2nn(-c3ccncc3C)c3c2CCCc2nc(NC(C)=O)sc2-3)cn1 [Example B-77] lies strictly below 50 nM
label 1

Confirm or reject: IC50 of CCn1nc(-c2ccc(NC)nc2)c2c1-c1sc(NC(=O)N(C)C)nc1CCC2 [Example B-48] lies strictly below 50 nM
label 0

###

targetOrSystem: FRAP1 (mTOR) kinase (Homo sapiens)
assay: Inhibition of mTOR-induced p-4E-BP1 phosphorylation (TR-FRET mTOR Activity Kit; Invitrogen)
assayContext: 400 nM GFP-4E-BP1 substrate, ~150 ng/mL mTOR, one hour at room temperature
Source text: Inhibition of mTOR-Induced p-4E-BP1 Phosphorylation (TR-FRET mTOR Activity Kit; Invitrogen) • GFP-4E-BP1 substrate; Invitrogen order no. PV4759 • Lanthascreen Tb-anti-p4E-BP1 (pThr46) Antibody Kit; Invitrogen order no. PV4758 • FRAP1 (mTOR) kinase; Invitrogen order no. […] Stop Step and Fluorescence Detection: 1. […] Measure the GFP (FRET) and terbium (reference) emission signals on a fluorescence plate reader (e.g. Perkin Elmer Envision). […]
pIC50: −log10 of the molar value.
Note to self: values exactly at 6 are T. So pIC50 at or above 6 is T, below is F.

Take a look at these entries with their results.
COC(=O)CCNC(=O)c1nn(C(C)C)c2c1CCCc1nc(NC(C)=O)sc1-2 : F
CNc1ccc(-c2nn(-c3ccccc3C)c3c2CCCc2nc(NC(=O)CCC(=O)N(C)C)sc2-3)cn1 : T
CC(=O)Nc1nc2c(s1)-c1c(c(C(=O)N(C)C)nn1C(C)C)CCC2 : F
CNc1ccc(-c2nn(-c3cccnc3C)c3c2CCCc2nc(NC(C)=O)sc2-3)cn1 : T

Please check the record "CNc1ccc(-c2nn(-c3ccccc3C)c3c2CCCc2nc(NC(=O)CCOC)sc2-3)cn1" and state if its pIC50 is at or above 6.
T

Please check the record CCNc1ccc(-c2nn(C3CCCOC3)c3c2CCCc2nc(NC(C)=O)sc2-3)cn1 (stereo not drawn) and state if its pIC50 is at or above 6.
T
